Molecular target: Fuc(a1-2)[GalNAc(a1-3)]Gal(b1-3)GlcNAc(b1-2)Man(a1-3)[Fuc(a1-2)[GalNAc(a1-3)]Gal(b1-3)GlcNAc(b1-2)Man(a1-6)]Man(b1-4)GlcNAc(b1-4)GlcNAc
Experiment: glycan array binding signal (z-score within array); higher = stronger binding
Details: glycan notation: IUPAC condensed, linker removed
This is one part of a sample in which the strongest signals are shown more often than they occur.
observationType: glycan array binding signal (z-score)
Give bare numbers.

Given the binder Clone646PsrP (Streptococcus pneumoniae) (protein) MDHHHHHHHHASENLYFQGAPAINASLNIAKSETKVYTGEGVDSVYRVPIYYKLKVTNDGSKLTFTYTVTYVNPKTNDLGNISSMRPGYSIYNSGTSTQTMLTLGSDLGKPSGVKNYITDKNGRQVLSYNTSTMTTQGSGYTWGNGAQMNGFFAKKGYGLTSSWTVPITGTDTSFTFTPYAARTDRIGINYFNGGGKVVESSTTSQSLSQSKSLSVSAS , write its reported glycan array binding signal (z-score).
-0.761
